system: Plasmodium falciparum; assay: Antiplasmodial activity against Plasmodium falciparum W2 infected in human RBC assessed as parasite growth inhibition measured as LDH activity after 72 hrs by plate reader analysis; format: functional, organism-based; conditions: Plasmodium falciparum, W2, 72 h; read-out: pIC50 (converted)
recorded endpoint: IC50 (µM)
Your answer should be a plain number; it is taken to be in µM.

Before answering, review these 3 worked examples.
{"given smiles": "Nc1nccc(-c2cn(S(=O)(=O)c3ccc(C(F)(F)F)cc3)c3ccc(Br)cc23)n1", "measured number": 9.42}
{"given smiles": "Nc1nccc(-c2cn(S(=O)(=O)c3ccc([N+](=O)[O-])cc3)c3ccc(Br)cc23)n1", "measured number": 6.38}
{"given smiles": "Cc1cc(C)c(S(=O)(=O)n2cc(-c3ccnc(N)n3)c3cc(Br)ccc32)c(C)c1", "measured number": 8.36}

Which value of IC50 has been reported for "CC(=O)Nc1ccc(S(=O)(=O)n2cc(-c3ccnc(N)n3)c3cc(Br)ccc32)cc1" in the records?
9.14

So what's the measured IC50 for this one? "CC(C)(C)c1ccc(S(=O)(=O)n2cc(-c3ccnc(N)n3)c3cc(Br)ccc32)cc1"
8.75

Return reported IC50; argument: "Nc1nccc(-c2cn(S(=O)(=O)c3cccc(C(F)(F)F)c3)c3ccc(Br)cc23)n1"
5.35

Which value of IC50 has been reported for "N#Cc1ccc(S(=O)(=O)n2cc(-c3ccnc(N)n3)c3cc(Br)ccc32)cc1" in the records?
5.2

Given the entry "Nc1nccc(-c2cn(S(=O)(=O)c3ccc(C(F)(F)F)cc3[N+](=O)[O-])c3ccc(Br)cc23)n1" , report its measured IC50.
3.41

Looking for the measured IC50 of "N#Cc1ccc(S(=O)(=O)n2cc(-c3ccnc(N)n3)c3ccccc32)cc1" , can you help?
8.97

###

experiment: Retention time of the compound by HPLC analysis; format: physicochemical
recorded endpoint: Retention_time
Please append the unit to your numeric answer.

Endpoint output: Retention_time of "N#Cc1ccc(S(=O)(=O)n2cc(-c3ccnc(N)n3)c3ccccc32)cc1" . Value?
7.02 min

Quick check: Retention_time of "Nc1nccc(-c2cn(S(=O)(=O)c3ccc(C(F)(F)F)cc3[N+](=O)[O-])c3ccc(Br)cc23)n1" ?
8.26 min

Find the recorded Retention_time belonging to "N#Cc1ccc(S(=O)(=O)n2cc(-c3ccnc(N)n3)c3cc(Br)ccc32)cc1" and report it.
7.09 min

###

test system: Plasmodium falciparum; experiment: Antiplasmodial activity against Plasmodium falciparum W2 infected in human RBC assessed as parasite growth inhibition measured as LDH activity after 72 hrs by plate reader analysis; format: functional, organism-based; settings: Plasmodium falciparum, W2, 72 h; read-out: IC50
Below: a set of entries, each annotated with reported IC50.
The answer is to be given in µM; state only the numeric part.

Examples with answers:
{"given smiles": "N#Cc1ccc(S(=O)(=O)n2cc(-c3ccnc(N)n3)c3cc(Br)ccc32)cc1", "test target": "Plasmodium falciparum", "recorded endpoint": "IC50", "unit of measure": "µM", "measured number": 5.2}
{"given smiles": "Cc1cc(C)c(S(=O)(=O)n2cc(-c3ccnc(N)n3)c3cc(Br)ccc32)c(C)c1", "test target": "Plasmodium falciparum", "recorded endpoint": "IC50", "unit of measure": "µM", "measured number": 8.36}
{"given smiles": "Nc1nccc(-c2cn(S(=O)(=O)c3ccc([N+](=O)[O-])cc3)c3ccc(Br)cc23)n1", "test target": "Plasmodium falciparum", "recorded endpoint": "IC50", "unit of measure": "µM", "measured number": 6.39}

Fill in the blank: the reported IC50 of "CC(=O)Nc1ccc(S(=O)(=O)n2cc(-c3ccnc(N)n3)c3cc(Br)ccc32)cc1" is ____.
9.14

Quick check: IC50 of "N#Cc1ccc(S(=O)(=O)n2cc(-c3ccnc(N)n3)c3ccccc32)cc1" ?
8.98

###

Documented IC50 across a set of compounds
system: LLC-PK1; experiment: Cytotoxicity against pig LLC-PK1 cells assessed as cell growth inhibition after 48 hrs by neutral red assay; format: cell-based; conditions: Sus scrofa, LLC-PK1, 48 h

Past entries and their recorded results:
{"given smiles": "Cc1cc(C)c(S(=O)(=O)n2cc(-c3ccnc(N)n3)c3cc(Br)ccc32)c(C)c1", "recorded endpoint": "IC50", "result": "> 53 µM"}
{"given smiles": "Nc1nccc(-c2cn(S(=O)(=O)c3ccc(C(F)(F)F)cc3[N+](=O)[O-])c3ccc(Br)cc23)n1", "recorded endpoint": "IC50", "result": "> 46 µM"}
{"given smiles": "Nc1nccc(-c2cn(S(=O)(=O)c3ccc([N+](=O)[O-])cc3)c3ccc(Br)cc23)n1", "recorded endpoint": "IC50", "result": "> 52 µM"}
{"given smiles": "N#Cc1ccc(S(=O)(=O)n2cc(-c3ccnc(N)n3)c3cc(Br)ccc32)cc1", "recorded endpoint": "IC50", "result": "> 55 µM"}

Suppose we examine the compound "Nc1nccc(-c2cn(S(=O)(=O)c3cccc(C(F)(F)F)c3)c3ccc(Br)cc23)n1" ; what IC50 value has been reported?
> 50 µM

###

system: Mycobacterium tuberculosis; assay: Antitubercular activity against Mycobacterium tuberculosis H37Rv assessed as […] inhibition after 7 days by broth microdilution assay; format: functional; details: 168 h
recorded endpoint: log10 MIC90 (log10 of the value in µM)
Values below are the log10 of the recorded MIC90, with µM as the unit.

# annotated cases, reported log10 MIC90 shown
{"compound": "Cc1ccsc1C(=O)n1cc(-c2ccnc(N)n2)c2ccccc21", "log10 MIC90": 2.28}
{"compound": "O=C1NC(c2c[nH]c3ccc(I)cc23)Nc2ccccc21 (configuration not stated)", "log10 MIC90": 0.72}
{"compound": "Cc1noc(C)c1Cn1cc(-c2ccnc(N)n2)c2ccccc21", "log10 MIC90": 2.30}

# input compound: "Cc1noc(C)c1Cn1cc(-c2ccnc(N)n2)c2cc(Br)ccc21" ; wanted: its log10 MIC90
1.91

Look up log10 MIC90: "COCCn1cc(-c2ccnc(N)n2)c2cc(Br)ccc21"
1.96

# lookup: log10 MIC90 of "Nc1nccc(-c2cn(S(=O)(=O)c3ccc(OC(F)(F)F)cc3)c3ccc(Br)cc23)n1"
1.80

log10 MIC90 for "Nc1nccc(-c2cn(S(=O)(=O)c3ccc(C(F)(F)F)cc3[N+](=O)[O-])c3ccc(Br)cc23)n1" ?
2.07

###

Catalogue of MIC90 readings, one per entry.
test system: Mycobacterium tuberculosis; assay: Antitubercular activity against Mycobacterium tuberculosis H37Rv assessed as […] inhibition after 7 days by broth microdilution assay; assay type: functional; settings: 168 h
Expressed in µM, but write only the number.

Worked examples follow.
{"compound": "Nc1nccc(-c2cn(S(=O)(=O)c3cccc(C(F)(F)F)c3)c3ccccc23)n1", "measured number": 153}
{"compound": "Nc1nccc(-c2c[nH]c3ccccc23)n1", "measured number": 305}
{"compound": "O=C1NC(c2c[nH]c3ccc(Br)cc23)Nc2ccccc21 (centres undefined)", "measured number": 23.4}

Entry "Nc1nccc(-c2cn(C(=O)c3ccccc3)c3ccc(Br)cc23)n1" , system Mycobacterium tuberculosis: what MIC90 was measured?
163

Item: "CO[C@H]1/C=C/O[C@@]2(C)Oc3c(C)c(O)c4c(O)c(c(/C=N/N5CCN(C)CC5)c(O)c4c3C2=O)NC(=O)/C(C)=C\C=C\[C@H](C)[C@H](O)[C@@H](C)[C@@H](O)[C@@H](C)[C@H](OC(C)=O)[C@@H]1C" Test system: Mycobacterium tuberculosis Read-out: MIC90 Value: ?
0.07

###

Below, each of the molecules is paired with its reported Retention_time value.
experiment: Retention time of the compound by HPLC analysis; type: physicochemical
Lab book: enter the figure in min, no units written.

{"given smiles": "Nc1nccc(-c2cn(S(=O)(=O)c3ccc(C(F)(F)F)cc3)c3ccc(Br)cc23)n1", "unit of measure": "min", "Retention_time": 9.54}
{"given smiles": "COc1ccc(S(=O)(=O)n2cc(-c3ccnc(N)n3)c3ccccc32)cc1", "unit of measure": "min", "Retention_time": 8.49}
{"given smiles": "Nc1nccc(-c2cn(S(=O)(=O)c3cccc(C(F)(F)F)c3)c3ccc(Br)cc23)n1", "unit of measure": "min", "Retention_time": 8.61}

What value of measured Retention_time is listed for "Cc1cc(C)c(S(=O)(=O)n2cc(-c3ccnc(N)n3)c3cc(Br)ccc32)c(C)c1" ?
10.66

Return reported Retention_time; argument: "COc1ccc(S(=O)(=O)n2cc(-c3ccnc(N)n3)c3ccccc32)cc1OC"
6.92

Any idea what Retention_time was measured for "Nc1nccc(-c2cn(S(=O)(=O)c3cc(C(F)(F)F)cc(C(F)(F)F)c3)c3ccc(Br)cc23)n1" ?
10.48

Any idea what Retention_time was measured for "Nc1nccc(-c2cn(S(=O)(=O)c3ccc4c(c3)OCCO4)c3ccccc23)n1" ?
8.02

Entry under review: "Nc1nccc(-c2cn(S(=O)(=O)c3ccc4ccccc4c3)c3ccccc23)n1" . Reported Retention_time?
8.31

# Retention_time lookup, item "CC(C)(C)c1ccc(S(=O)(=O)n2cc(-c3ccnc(N)n3)c3ccccc32)cc1"
9.09
